Recorded values, source patent US20250250357A1.

Biological target: T1, human MSLN full-length protein (NCBI: AAH09272.1) expressed on HEK293T-hMSLN-B8 cells (human, UniProt Q13421 296-598)
T1 construct: Whole encoded precursor
T1 sequence (Q13421 other isoform, or with tags, fused parts or gaps limits assumed): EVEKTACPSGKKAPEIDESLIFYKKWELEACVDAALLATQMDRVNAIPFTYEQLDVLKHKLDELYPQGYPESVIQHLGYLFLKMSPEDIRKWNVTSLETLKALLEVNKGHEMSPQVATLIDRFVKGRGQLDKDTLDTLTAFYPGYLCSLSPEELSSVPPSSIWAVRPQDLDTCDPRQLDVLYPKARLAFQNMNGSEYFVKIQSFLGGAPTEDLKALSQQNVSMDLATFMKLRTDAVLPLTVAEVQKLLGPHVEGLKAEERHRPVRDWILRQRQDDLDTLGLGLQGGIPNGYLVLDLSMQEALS
Test: FACS on HEK293T-hMSLN-B8 cells
Below, each entry is listed alongside its reported Maximum mean fluorescence intensity.
Could you respond with only the numeric value?

Some solved entries appear below for comparison.
# binder, Maximum mean fluorescence intensity
measured = [
    ("S009-F3.7.3 (antibody, human IgG1, kappa, V domains shown, human-murine chimeric antibody, human IgG1/kappa constant regions) VH: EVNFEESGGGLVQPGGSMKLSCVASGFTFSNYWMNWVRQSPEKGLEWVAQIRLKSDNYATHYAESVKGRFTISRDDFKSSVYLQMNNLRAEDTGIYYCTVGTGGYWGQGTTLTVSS VL: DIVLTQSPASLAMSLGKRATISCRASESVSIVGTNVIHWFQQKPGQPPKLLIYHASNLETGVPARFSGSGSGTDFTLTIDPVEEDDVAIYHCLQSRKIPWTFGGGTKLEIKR", 88800),
    ("S009-F3.80.22 (antibody, human IgG1, kappa, V domains shown, human-murine chimeric antibody, human IgG1/kappa constant regions) VH: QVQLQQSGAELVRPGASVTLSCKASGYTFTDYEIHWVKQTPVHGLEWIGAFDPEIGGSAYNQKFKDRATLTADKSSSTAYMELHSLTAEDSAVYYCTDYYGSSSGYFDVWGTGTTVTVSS VL: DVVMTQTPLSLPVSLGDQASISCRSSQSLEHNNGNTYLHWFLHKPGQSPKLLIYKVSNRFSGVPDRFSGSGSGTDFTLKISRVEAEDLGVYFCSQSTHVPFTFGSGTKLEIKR", 24700),
]

Now examine the next entry.
Ask: Specify measured Maximum mean fluorescence intensity for S009-F3.16.1 (antibody, human IgG1, kappa, V domains shown, human-murine chimeric antibody, human IgG1/kappa constant regions) VH: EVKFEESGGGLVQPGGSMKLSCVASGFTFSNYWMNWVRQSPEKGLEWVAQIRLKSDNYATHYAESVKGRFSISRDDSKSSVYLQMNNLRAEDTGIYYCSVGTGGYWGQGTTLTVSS VL: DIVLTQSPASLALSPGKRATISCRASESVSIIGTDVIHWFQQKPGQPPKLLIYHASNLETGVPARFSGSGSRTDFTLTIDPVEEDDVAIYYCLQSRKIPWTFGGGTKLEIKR .
Reply: 89800
